Tgt: MKNK1 (Homo sapiens, UniProt Q9BUB5, T385D)
Construct: GST (N); purchased Carna Biosciences 02-145; host or cells: insect cells (baculovirus expression system)
Sequence (Q9BUB5 1-424 isoform Q9BUB5-2 T344D): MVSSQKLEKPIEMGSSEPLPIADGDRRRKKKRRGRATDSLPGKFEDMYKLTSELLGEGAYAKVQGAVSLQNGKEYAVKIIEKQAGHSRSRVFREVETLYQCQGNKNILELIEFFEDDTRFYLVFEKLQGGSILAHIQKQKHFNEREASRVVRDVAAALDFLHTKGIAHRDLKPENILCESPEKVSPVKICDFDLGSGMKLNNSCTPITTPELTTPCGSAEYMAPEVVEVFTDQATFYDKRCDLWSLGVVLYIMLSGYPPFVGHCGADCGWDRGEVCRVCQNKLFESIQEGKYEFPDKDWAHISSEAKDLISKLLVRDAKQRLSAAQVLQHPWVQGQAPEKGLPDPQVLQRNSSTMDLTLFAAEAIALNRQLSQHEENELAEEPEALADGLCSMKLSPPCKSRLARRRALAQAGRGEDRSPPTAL
Test name: MKNK1 kinase assay (MKNK1 TR-FRET assay)
Assay type: biochemical
Test context: Table 1b; 10 μM ATP, 15 min preincubation
pIC50: −log10 of the molar value.
Entry flag: 1 if pIC50 reaches 8; -1 if it does not.

Molecule: C[C@H]1CNCCN1c1cccc2oc(-c3cnc4ccc(OCCCS(C)(=O)=O)nn34)cc12 [II-58]
Label: 1

Molecule: C[C@@H]1CN(c2cccc3oc(-c4cnc5ccc(OC[C@@H](C)N)nn45)cc23)CCO1 [II-69]
Label: -1

Molecule: CC1(C)CN(c2cccc3oc(-c4cnc5ccc(OC[C@H]6CCC(=O)N6)nn45)cc23)CCO1 [II-74]
Label: 1

Molecule: C[C@H]1CNCCN1c1cccc2oc(-c3cnc4ccc(OC[C@@H]5CCC(=O)N5)nn34)cc12 [II-38]
Label: 1

Molecule: CCN(CCOC)c1cccc2oc(-c3cnc4ccc(OC[C@H]5CCC(=O)N5)nn34)cc12 [II-17]
Label: 1

Molecule: O=C1CC[C@H](COc2ccc3ncc(-c4cc5c(N6CCNCC6)cccc5o4)n3n2)N1 [II-19]
Label: 1

Molecule: C[C@@H]1COCCN1c1cccc2oc(-c3cnc4ccc(OC[C@@H](C)N)nn34)cc12 [II-37]
Label: -1

Molecule: C[C@@H]1COCCN1c1cccc2oc(-c3cnc4ccc(O[C@H]5C[C@H](N)C5)nn34)cc12 [II-50]
Label: -1

Molecule: CC1(C)CN(c2cccc3oc(-c4cnc5ccc(OCC(F)(F)F)nn45)cc23)CCN1 [II-54]
Label: 1

Molecule: C[C@@H]1CN(c2cccc3oc(-c4cnc5ccc(O[C@H]6C[C@H](N)C6)nn45)cc23)CCO1 [II-73]
Label: -1

Molecule: C[C@@H]1CNCCN1c1cccc2oc(-c3cnc4ccc(OCCCS(C)(=O)=O)nn34)cc12 [II-45]
Label: 1

Molecule: COc1ccc2ncc(-c3cc4c(N5CCN[C@H](C)C5)cccc4o3)n2n1 [II-39]
Label: 1

Molecule: C[C@H](N)COc1ccc2ncc(-c3cc4c(N5CCN(c6ccccc6)CC5)cccc4o3)n2n1 [II-15]
Label: -1

Molecule: C[C@H]1COCCN1c1cccc2oc(-c3cnc4ccc(O[C@H]5C[C@H](N)C5)nn34)cc12 [II-34]
Label: -1

Molecule: C[C@H]1CNCCN1c1cccc2oc(-c3cnc4ccc(OCC(F)(F)F)nn34)cc12 [II-29]
Label: 1
